- systemUnderTest: recombinant human baculovirus-expressed GST-tagged FASN (Homo sapiens)
- Construct: GST
- Sequence (P49327 whole entry): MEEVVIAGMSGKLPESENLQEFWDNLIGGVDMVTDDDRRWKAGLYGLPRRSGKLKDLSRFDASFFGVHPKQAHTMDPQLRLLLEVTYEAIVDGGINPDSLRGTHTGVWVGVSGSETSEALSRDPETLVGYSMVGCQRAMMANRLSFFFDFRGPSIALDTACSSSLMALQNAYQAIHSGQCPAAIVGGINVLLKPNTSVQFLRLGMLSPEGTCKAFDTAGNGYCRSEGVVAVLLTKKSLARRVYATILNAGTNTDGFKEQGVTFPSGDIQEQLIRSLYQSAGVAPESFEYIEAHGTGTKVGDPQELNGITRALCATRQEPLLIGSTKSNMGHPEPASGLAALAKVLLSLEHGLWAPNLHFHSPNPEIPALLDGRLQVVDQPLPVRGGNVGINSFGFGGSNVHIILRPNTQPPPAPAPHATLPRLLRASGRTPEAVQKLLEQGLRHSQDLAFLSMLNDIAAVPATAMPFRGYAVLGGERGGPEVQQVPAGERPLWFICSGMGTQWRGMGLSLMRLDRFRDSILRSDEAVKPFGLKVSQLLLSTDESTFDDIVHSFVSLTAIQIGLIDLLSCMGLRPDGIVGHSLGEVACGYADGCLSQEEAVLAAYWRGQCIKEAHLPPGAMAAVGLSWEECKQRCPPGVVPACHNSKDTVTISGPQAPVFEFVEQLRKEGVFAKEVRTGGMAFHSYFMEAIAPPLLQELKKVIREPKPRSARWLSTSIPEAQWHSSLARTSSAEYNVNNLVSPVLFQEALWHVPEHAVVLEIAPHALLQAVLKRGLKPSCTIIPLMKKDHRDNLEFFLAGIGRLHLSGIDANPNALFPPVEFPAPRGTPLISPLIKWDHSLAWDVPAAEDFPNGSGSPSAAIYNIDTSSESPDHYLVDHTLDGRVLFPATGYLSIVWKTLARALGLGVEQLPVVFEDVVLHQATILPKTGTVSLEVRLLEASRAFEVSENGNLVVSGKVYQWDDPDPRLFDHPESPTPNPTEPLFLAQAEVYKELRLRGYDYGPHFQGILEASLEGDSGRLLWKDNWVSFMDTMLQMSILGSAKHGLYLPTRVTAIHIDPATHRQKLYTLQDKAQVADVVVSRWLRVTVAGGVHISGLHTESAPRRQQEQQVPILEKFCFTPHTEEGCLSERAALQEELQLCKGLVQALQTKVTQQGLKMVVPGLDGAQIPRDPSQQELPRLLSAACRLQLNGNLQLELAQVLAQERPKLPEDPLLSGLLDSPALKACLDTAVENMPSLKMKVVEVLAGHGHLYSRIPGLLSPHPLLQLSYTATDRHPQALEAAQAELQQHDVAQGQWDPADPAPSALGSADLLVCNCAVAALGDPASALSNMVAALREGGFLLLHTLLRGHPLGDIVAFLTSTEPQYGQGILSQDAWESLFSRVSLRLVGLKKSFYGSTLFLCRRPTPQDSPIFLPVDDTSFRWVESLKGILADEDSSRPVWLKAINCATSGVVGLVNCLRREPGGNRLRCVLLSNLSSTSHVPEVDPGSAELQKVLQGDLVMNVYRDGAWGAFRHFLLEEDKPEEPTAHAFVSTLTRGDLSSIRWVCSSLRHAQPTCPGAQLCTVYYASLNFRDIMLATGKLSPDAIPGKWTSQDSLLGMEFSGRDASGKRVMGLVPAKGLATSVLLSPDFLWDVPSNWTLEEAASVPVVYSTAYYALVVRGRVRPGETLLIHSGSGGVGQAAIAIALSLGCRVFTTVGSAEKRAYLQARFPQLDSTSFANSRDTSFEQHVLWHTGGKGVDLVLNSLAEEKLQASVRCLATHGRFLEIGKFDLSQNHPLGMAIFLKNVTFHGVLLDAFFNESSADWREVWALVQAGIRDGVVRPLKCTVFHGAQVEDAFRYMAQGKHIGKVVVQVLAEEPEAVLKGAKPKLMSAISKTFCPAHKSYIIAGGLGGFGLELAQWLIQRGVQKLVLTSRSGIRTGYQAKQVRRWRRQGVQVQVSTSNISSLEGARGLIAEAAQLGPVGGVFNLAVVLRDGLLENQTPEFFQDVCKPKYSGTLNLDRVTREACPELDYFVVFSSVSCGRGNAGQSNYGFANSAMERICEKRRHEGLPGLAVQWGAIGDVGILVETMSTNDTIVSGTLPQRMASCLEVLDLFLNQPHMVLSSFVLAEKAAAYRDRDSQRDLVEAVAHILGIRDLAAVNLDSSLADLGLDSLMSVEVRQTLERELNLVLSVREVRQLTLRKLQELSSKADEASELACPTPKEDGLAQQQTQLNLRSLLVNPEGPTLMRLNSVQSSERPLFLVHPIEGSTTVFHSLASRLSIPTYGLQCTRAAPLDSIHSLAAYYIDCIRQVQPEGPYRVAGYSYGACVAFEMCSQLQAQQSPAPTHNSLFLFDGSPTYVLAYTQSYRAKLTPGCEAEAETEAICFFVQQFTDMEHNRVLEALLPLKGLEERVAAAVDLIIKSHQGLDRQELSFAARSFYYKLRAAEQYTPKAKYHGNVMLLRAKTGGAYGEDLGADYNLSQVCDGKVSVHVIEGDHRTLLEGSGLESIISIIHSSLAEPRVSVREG
- experimentDescription: FASN enzyme activity assay, fluorescence-based detection of CoA with CPM
- Assay type: biochemical
- condition: 5 nM FASN, 150 μM NADPH, 10 μM acetyl-CoA, 25 μM malonyl-CoA, 90 minutes incubation; read-out: IC50 data for Compounds of Formulae I-V/V(a): Activity
Counter-ions that a name gives are not always drawn.
Reported IC50 is given for each of the following compounds.

Field: example entries. Status: answers known.
O=C(C1CC1)N1CCC(Oc2ccc(-c3ccc4scnc4c3)cc2)CC1 [Example 268, TFA salt] :: 1000 to 10000 nM
CCC(=O)N1CCC(Oc2ccc(-c3cnc4ccsc4c3)cc2)CC1 [Example 264, TFA salt] :: 1000 to 10000 nM
CCC(=O)N1CCC(Oc2ccc(-c3cnc4cc(OC)c(OC)cc4c3)cc2)CC1 :: 1000 to 10000 nM
O=C(c1ccccc1)N1CCC(Oc2ccc(-c3cnc4ccccc4c3)cc2)CC1 [Example 127, HCl] :: 1000 to 10000 nM
O=C(C1CCC1)N1CCC(Oc2ccc(-c3ccc4cccnc4c3F)cc2)CC1 :: 1 to 99 nM

Give its IC50 value. Item: "Cc1ccc2ccc(-c3ccc(OC4CCN(C(=O)C5CC5)CC4)cc3)c(F)c2n1"
1000 to 10000 nM

Any idea what its IC50 is? The compound is CN1CCN(CCOc2c(-c3ccc(OC4CCN(C(=O)[C@H]5CCCO5)CC4)cc3)ccc3cccnc23)CC1 [Example 185, HCl]
100 to 999 nM

Give its IC50 value. Item: "CCC(=O)N1CCC(Oc2ccc(-c3cnc4ccccc4c3Cl)cc2)CC1"
1 to 99 nM

Given the entry "Nc1c(-c2ccc(OC3CCN(C(=O)[C@H]4CCCO4)CC3)cc2)ccc2cccnc12" , report its measured IC50.
1 to 99 nM

Which IC50 value is on record for "CCC(=O)N1CCC(Oc2ccc(-c3ccc4c(C)nccc4c3)cc2)CC1" ?
1 to 99 nM

Which IC50 reading was recorded for the compound "O=C(C1CC1)N1CCC(Oc2ccc(-c3ccc4cccnc4c3F)cc2)CC1" ?
1 to 99 nM

I'd like to know its IC50. The compound in question is Cc1c(-c2ccc(O[C@@H]3CCN(C(=O)[C@@H]4CCCO4)C[C@H]3F)cc2)ccc2cccnc12 (racemic) [Example 372, HCl]
1 to 99 nM

Name the recorded IC50 for COc1c(-c2ccc(OC3CCN(C(=O)C4CC4)CC3)cc2)ccc2cccnc12 [Example 274, HCl] .
1 to 99 nM

# IC50 lookup, item "Cc1c(-c2ccc(OC3CCN(C(=O)C4CCC4)CC3)cc2)ccc2cccnc12"
1 to 99 nM

What value of IC50 has been reported for the following compound? Cc1ccc2ncccc2c1-c1ccc(OC2CCN(C(=O)C3CCCO3)CC2)cc1 (stereo in doubt)
1 to 99 nM

So what does the record say about IC50 for "O=C([C@H]1CCCO1)N1CCC(Oc2ccc(-c3cnc4cccc(F)c4c3)cc2)CC1" ?
1 to 99 nM

Look up IC50: CCC(=O)N1CCC(Oc2ccc(-c3ccc4c(C)ncc(C)c4c3)cc2)CC1 [Example 469, HCl]
100 to 999 nM

Name the recorded IC50 for "CC(C)C(=O)N1CCC(S(=O)(=O)c2ccc(-c3ccc4cnccc4c3)cc2)CC1" .
1000 to 10000 nM

I would be grateful if you could share the reported IC50 for "O=C([C@H]1CCCO1)N1CCC(Oc2ccc(-c3cnc4ccccc4c3N3CCOCC3)cc2)CC1" .
100 to 999 nM

Which IC50 value is on record for "COc1cc2cc(-c3ccc(OC4CCN(C(=O)C5CC5)CC4)cc3)ccc2cn1" ?
100 to 999 nM

What value of IC50 has been recorded for this entry: CCC(=O)N1CCC(Oc2ccc(-c3cnc4ccccc4c3)cn2)CC1 [Example 132, HCl]
1000 to 10000 nM

Entry "Cc1c(-c2ccc(OC3CCN(C(=O)N4CCCCC4)CC3)cc2)ccc2cccnc12" : reported IC50 = ?
1 to 99 nM

Any idea what its IC50 is? The compound is O=C(C1CC1)N1CCC(Oc2ccc(-c3ccc4cccnc4c3OCCCN3CCCC3)cc2)CC1 [Example 176, HCl]
1000 to 10000 nM

// returns reported IC50 for input "O=C(N1CCC(Oc2ccc(-c3ccc4cccnc4c3Cl)cc2)CC1)N1CCCO1"
1 to 99 nM
